System: S. aureus ATCC 43300
experiment.summary: In vitro dose-killing curves (24 h)
Type: cell-based, Staphylococcus aureus
experimental.setup: Staphylococcus aureus, ATCC43300, 50% reduction in Log10 CFU at 24 h between minimum and maximum
Experimental: The in vitro dose-killing curves of NZX against the test S. aureus strains were conducted as previous described (Brinch et al. [2010]), with some modification. The S. aureus cells in mid-log phage were diluted. Then, the killing curves of NZX against S. aureus strains were carried out in the 48-well plate. […] Results were expressed as the average of three independent experiments data.
measured.quantity: EC50 (nM)

{"columns": ["smiles.str", "experimental.system", "observed"],
 "data": [
  ["CO/N=C(\\C(=O)N[C@@H]1C(=O)N2C(C(=O)O)=C(CSC(=O)c3ccco3)CS[C@H]12)c1csc(N)n1", "S. aureus ATCC 43300", 910]
]}
